Test Target: T1, EsCas13d, nuclease-dead (Eubacterium siraeum, UniProt B0MS50, R295A;H300A;R849A;H854A)
T1 sequence: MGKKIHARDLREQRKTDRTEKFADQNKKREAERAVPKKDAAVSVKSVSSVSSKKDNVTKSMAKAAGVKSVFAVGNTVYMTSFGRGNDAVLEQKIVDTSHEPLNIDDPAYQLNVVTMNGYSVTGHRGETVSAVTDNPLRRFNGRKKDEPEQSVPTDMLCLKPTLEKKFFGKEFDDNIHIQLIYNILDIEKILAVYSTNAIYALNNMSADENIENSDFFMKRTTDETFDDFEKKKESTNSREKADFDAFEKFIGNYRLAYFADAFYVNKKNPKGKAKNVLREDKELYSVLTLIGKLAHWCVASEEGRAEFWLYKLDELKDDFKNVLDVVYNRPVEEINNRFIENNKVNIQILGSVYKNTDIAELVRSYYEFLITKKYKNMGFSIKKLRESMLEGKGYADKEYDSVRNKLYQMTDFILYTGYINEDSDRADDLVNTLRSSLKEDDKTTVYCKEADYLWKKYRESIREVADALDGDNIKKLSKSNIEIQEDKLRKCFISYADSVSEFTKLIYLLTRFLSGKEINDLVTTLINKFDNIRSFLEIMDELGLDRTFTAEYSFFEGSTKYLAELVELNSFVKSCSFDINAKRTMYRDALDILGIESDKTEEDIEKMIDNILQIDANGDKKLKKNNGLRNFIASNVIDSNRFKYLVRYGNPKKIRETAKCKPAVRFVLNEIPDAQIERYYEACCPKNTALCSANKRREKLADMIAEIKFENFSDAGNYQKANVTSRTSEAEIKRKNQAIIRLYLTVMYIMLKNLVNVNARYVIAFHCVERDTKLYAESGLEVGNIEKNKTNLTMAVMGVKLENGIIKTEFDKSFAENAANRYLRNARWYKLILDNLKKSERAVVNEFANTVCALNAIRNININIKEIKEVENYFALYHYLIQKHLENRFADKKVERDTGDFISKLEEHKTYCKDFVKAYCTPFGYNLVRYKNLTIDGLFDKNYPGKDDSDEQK
Test: crRNA (strand 1, pre-loaded); Mg2+; 40 mM Tris-HCl pH 7.5, 150 mM NaCl, 6 mM MgCl2, 1 mM DTT, 0.1% Tween-20, 0.2 mg/ml BSA; 25 C; 10 min per concentration, then washed
Study Conditions: tags: His6-TwinStrep-SUMO cleaved; N-terminal SNAP kept (SNAP-Surface 488); label: 3' end held by stalled T7 RNA polymerase
Decision: Kd beneath 20 nM gives true; Kd meeting or exceeding 20 nM gives false.

Some solved cases for reference:
target 1 insC 3' of 14,insA 3' of 3 (mixed) RNA 1: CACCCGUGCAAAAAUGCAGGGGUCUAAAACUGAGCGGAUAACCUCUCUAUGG RNA 2: GGGAAUGGAUCCACAUCUACGAAUUCGUACCAUAGAGACGGUUAUCCGCUACACCGAGAUCGGAAGAGCACACGU    false
target 1 MT 5'PFS CUA 3'PFS AGG (mixed) RNA 1: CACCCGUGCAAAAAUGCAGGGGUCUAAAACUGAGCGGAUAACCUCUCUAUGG RNA 2: GGGAAUGGAUCCACAUCUACGAAUUCCUACCAUAGAGAGGUUAUCCGCUCAAGGAGAUCGGAAGAGCACACGU    false
target 1 MT 5'PFS AUA 3'PFS UUC (mixed) RNA 1: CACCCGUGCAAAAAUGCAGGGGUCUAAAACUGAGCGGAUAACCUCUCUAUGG RNA 2: GGGAAUGGAUCCACAUCUACGAAUUCAUACCAUAGAGAGGUUAUCCGCUCAUUCAGAUCGGAAGAGCACACGU    true
target 1 insU 3' of 7,insU 3' of 1 (mixed) RNA 1: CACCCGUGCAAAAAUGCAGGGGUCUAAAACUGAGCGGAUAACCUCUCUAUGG RNA 2: GGGAAUGGAUCCACAUCUACGAAUUCGUACCAUAGAGAGGUUAUCUCGCUCAUCCGAGAUCGGAAGAGCACACGU    true
target 1 MT 5'PFS GCU 3'PFS UCG (mixed) RNA 1: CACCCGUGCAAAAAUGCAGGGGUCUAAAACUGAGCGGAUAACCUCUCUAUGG RNA 2: GGGAAUGGAUCCACAUCUACGAAUUCGCUCCAUAGAGAGGUUAUCCGCUCAUCGAGAUCGGAAGAGCACACGU    false

Threshold test, Kd < 20 nM: target 1 MT 5'PFS AGU 3'PFS UCC (mixed) RNA 1: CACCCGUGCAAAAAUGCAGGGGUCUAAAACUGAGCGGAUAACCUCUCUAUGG RNA 2: GGGAAUGGAUCCACAUCUACGAAUUCAGUCCAUAGAGAGGUUAUCCGCUCAUCCAGAUCGGAAGAGCACACGU false

Continue with target 1 insG 3' of 18,insU 3' of 18 (mixed) RNA 1: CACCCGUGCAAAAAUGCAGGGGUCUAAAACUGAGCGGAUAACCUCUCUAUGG RNA 2: GGGAAUGGAUCCACAUCUACGAAUUCGUACCAUAGUGAGAGGUUAUCCGCUCACCGAGAUCGGAAGAGCACACGU false

Continue with target 3 C6G,A9G (mixed) RNA 1: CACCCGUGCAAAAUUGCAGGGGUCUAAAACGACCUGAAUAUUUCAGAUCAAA RNA 2: GGGAAUGGAUCCACAUCUACGAAUUCGUUUUUGAUCUGAAAUGUUGAGGUCUGCAGAUCGGAAGAGCACACGU false

Continue with target 1 MT 5'PFS GCG 3'PFS ACG (mixed) RNA 1: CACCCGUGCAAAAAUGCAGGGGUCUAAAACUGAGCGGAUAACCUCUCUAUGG RNA 2: GGGAAUGGAUCCACAUCUACGAAUUCGCGCCAUAGAGAGGUUAUCCGCUCAACGAGAUCGGAAGAGCACACGU false

Continue with target 1 C2A,U11A (mixed) RNA 1: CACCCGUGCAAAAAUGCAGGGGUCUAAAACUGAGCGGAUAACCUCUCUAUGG RNA 2: GGGAAUGGAUCCACAUCUACGAAUUCGUACCAUAGAGAGGAUAUCCGCUAACCGAGAUCGGAAGAGCACACGU false

Continue with target 1 insU 3' of 21,insG 3' of 20 (mixed) RNA 1: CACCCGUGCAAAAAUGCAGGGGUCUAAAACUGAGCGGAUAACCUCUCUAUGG RNA 2: GGGAAUGGAUCCACAUCUACGAAUUCGUACCUAGUAGAGAGGUUAUCCGCUCACCGAGAUCGGAAGAGCACACGU false

Continue with target 1 C2A,G12C (mixed) RNA 1: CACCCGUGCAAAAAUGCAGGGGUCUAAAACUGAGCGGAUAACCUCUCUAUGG RNA 2: GGGAAUGGAUCCACAUCUACGAAUUCGUACCAUAGAGAGCUUAUCCGCUAACCGAGAUCGGAAGAGCACACGU true

Continue with target 1 insG 3' of 4,insA 3' of 3 (mixed) RNA 1: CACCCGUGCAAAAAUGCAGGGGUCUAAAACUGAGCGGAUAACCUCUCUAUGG RNA 2: GGGAAUGGAUCCACAUCUACGAAUUCGUACCAUAGAGAGGUUAUCCGCGUACACCGAGAUCGGAAGAGCACACGU true
